- Test system: sodium channel
- Experiment Description: [14C] guanidine uptake induced by veratridine in rat cerebral cortex primary neurons (sodium channel inhibitory action)
- Assay type: cell-based
- Reported Conditions: [14C] guanidine uptake induced by 100 μM veratridine, specific uptake = portion inhibited by 1 mM mexiletine, read-out: Na Channel Inhibition IC50
pIC50: −log10 of the molar value.
Decision: pIC50 compared against 5; not below it gives 1, below it gives -1.

Examples from the recorded data:
> print(dat)
                                   compound  answer.label
1  Cc1cccc(C)c1/C=C/C1CCN(C(=O)CN(C)CCN2CCOCC2)CC1             1
2  Cc1cccc(C)c1/C=C/C1CCN(C(=O)CN2CCC(Cc3ccccc3)CC2)CC1             1
3  Cc1cccc(C)c1/C=C/C1CCN(C(=O)CNC2CCOCC2)CC1             1
4  Cc1cccc(C)c1/C=C/C1CCN(C(=O)CN2CCSCC2)CC1             1
5           COc1cc(C)c(/C=C/C2CCNCC2)c(C)c1            -1
6  Cc1cccc(C)c1/C=C/C1CCN(C(=O)CN2CCN(C3CCCCC3)CC2)CC1             1

Qu. Could you verify whether the entry Cc1cccc(C)c1C=CC1CCN(C(=O)CNCC2CCCO2)CC1 (stereo not shown) shows pIC50 of no less than 5?
Ans. 1

Qu. Could you verify whether the entry Cc1cccc(C)c1OCC(C)N (stereo not shown) [Mexiletine, reference compound] shows pIC50 of no less than 5?
Ans. -1

----------
Measured pIC50, listed per entry for reference.
- Test system: sodium channel
- Experiment Description: [14C] guanidine uptake induced by veratridine in rat cerebral cortex primary neurons (sodium channel inhibitory action)
- Format: cell-based
- Reported Conditions: [14C] guanidine uptake induced by 100 μM veratridine, specific uptake = portion inhibited by 1 mM mexiletine, read-out: Na Channel Inhibition IC50
Entry type: numeric. Quantity: pIC50, the -log10 of concentration in molar units.

Use these answered entries as a reference point.
> print(dat)
                                   molecule  endpoint.result
1  Cc1cccc(C)c1/C=C/C1CCCN(C)C1 (centres unmarked) [Example 71]             5.11
2  Cc1cccc(C)c1/C=C/C1CCN(C(=O)CN2CC=CC2)CC1 [Example 145]             5.22

Qu. Report pIC50, nothing else, for this molecule: CCCCN(CCCC)C(=O)c1cc(C)c(/C=C/C2CCNCC2)c(C)c1 [Example 51]
Ans. 4.82

Qu. Report pIC50, nothing else, for this molecule: Cc1cc(N(C)C)cc(C)c1/C=C/C1CCNCC1 [Example 53]
Ans. 4.72

Qu. Report pIC50, nothing else, for this molecule: Cc1cccc(C)c1/C=C\C1CCNCC1 [Example 38]
Ans. 5.22

----------
- System: sodium channel
- Experiment Description: [14C] guanidine uptake induced by veratridine in rat cerebral cortex primary neurons (sodium channel inhibitory action)
- Format: cell-based
- Reported Conditions: [14C] guanidine uptake induced by 100 μM veratridine, specific uptake = portion inhibited by 1 mM mexiletine, read-out: Na Channel Inhibition IC50
Where a name gives a salt, the structure may show the parent alone.
Property Label: IC50 (µM)
Numbers only here, please. The scale is µM.

Use these answered entries as a reference point.
> print(dat)
                                    compound  property.label  endpoint.result
 1                Cc1cccc(C)c1/C=C/CC1CCNCC1            IC50               11
 2  Cc1cccc(C)c1/C=C/[C@H]1CCNC[C@@H]1C [Example 68, hydrochloride]            IC50              8.7
 3  O=C(CN1CCOCC1)N1CCC(/C=C/c2c(Cl)cccc2Cl)CC1            IC50               12
 4  Cc1cccc(C)c1/C=C/C1CCCNCC1 (centres unmarked)            IC50               10
 5     Cc1cccc(C)c1/C=C/C1CCN(C(=O)CNCCN)CC1            IC50              8.5
 6  Cc1cccc(Cl)c1/C=C/C1CCNCC1 [Example 37, hydrochloride]            IC50               10
 7           Cc1cccc(C)c1/C=C/C12CCN(CC1)CC2            IC50               10
 8      Cc1cccc(C)c1/C=C/C1CCN(Cc2ccccc2)CC1            IC50              1.9
 9           COCCN1CCC(/C=C/c2c(C)cccc2C)CC1            IC50              3.5
10  Cc1cccc(C)c1C=CC1CCN(C(=O)CN(C)CC2CCCO2)CC1 (centres unmarked)            IC50                3

Qu. Report IC50, nothing else, for this compound: Cc1cc(Br)cc(C)c1/C=C\C1CCNCC1
Ans. 6.7

Qu. Report IC50, nothing else, for this compound: CCc1cccc(CC)c1/C=C/C1CCNCC1
Ans. 8.4

Qu. Report IC50, nothing else, for this compound: Cc1cccc(C)c1C=CC1CCN(C(=O)C2COCCN2)CC1 (centres unmarked)
Ans. 9.4

Qu. Report IC50, nothing else, for this compound: Cc1cccc(C)c1/C=C/C1CCCCN1 (centres unmarked) [Example 62, monohydrochloride]
Ans. 9.2
